Target: KLKB1 (Homo sapiens (Human))
Sequence (P03952 391-638 limits assumed): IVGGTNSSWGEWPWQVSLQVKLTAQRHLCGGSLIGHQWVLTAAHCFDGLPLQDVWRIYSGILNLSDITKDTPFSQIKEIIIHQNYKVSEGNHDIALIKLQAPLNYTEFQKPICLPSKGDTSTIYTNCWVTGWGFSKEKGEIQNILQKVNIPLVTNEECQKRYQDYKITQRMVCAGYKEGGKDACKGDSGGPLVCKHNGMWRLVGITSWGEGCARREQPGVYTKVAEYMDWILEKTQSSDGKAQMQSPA
Sequence (P03952 20-390 partner limits assumed): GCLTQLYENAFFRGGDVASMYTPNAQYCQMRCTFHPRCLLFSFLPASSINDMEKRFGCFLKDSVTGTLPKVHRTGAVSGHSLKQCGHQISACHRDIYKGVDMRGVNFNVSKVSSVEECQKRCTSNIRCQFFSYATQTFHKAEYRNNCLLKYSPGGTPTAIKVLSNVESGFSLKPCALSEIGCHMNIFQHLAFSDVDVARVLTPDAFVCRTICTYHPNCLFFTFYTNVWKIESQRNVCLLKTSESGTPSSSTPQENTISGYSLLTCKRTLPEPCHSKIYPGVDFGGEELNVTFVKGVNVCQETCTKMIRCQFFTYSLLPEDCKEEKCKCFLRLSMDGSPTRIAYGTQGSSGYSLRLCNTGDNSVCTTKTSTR
Assay: Inhibition of KLKB1 in kaolin activated human PPP
Type: biochemical
Conditions: human platelet poor plasma (Na-Citrat), 25, 75, 250 or 750 μg/mL kaolin, global fit; read-out: IC90
Observation type: IC90 (nM)

Compound	IC90 / nM
Cc1nc(N2CC3CC3C2)ccc1Cn1cc(C(=O)N[C@@H]2CCc3c2ccnc3N)c(C(F)(F)F)n1 (some centres unmarked) [Example 4]	446
Cc1nc(N2CC3CC3C2)ccc1Cn1cc(C(=O)N[C@@H]2CCc3c2ccnc3N)c(C)n1 (some centres unmarked) [Example 3]	238

P: Cc1cc2c(c(N)n1)CC[C@H]2NC(=O)c1cnn(Cc2ccc(N3CC4CC4C3)nc2C)c1 (some centres unmarked) [Example 2]
Q: Cc1nc(N2CC3C(C2)C3(F)F)ccc1Cn1cc(C(=O)N[C@@H]2CCc3c2ccnc3N)c(C(F)(F)F)n1 (some centres unmarked) [Example 7]
So which one has the bigger IC90 here, P or Q ? Select an item and report its label.
Q

###

Molecular target: UniProt P03952
Experiment: Inhibition of human KLKB1 in dextran sulfate activated human PPP
Type: biochemical
Observation type: pIC50
Quick note: pIC50 values are minus log10 of concentrations in mol/L.

// pIC50 lookup, key: Cc1nc(N2CC3CC3C2)ccc1Cn1cc(C(=O)N[C@@H]2CCc3c2ccnc3N)cn1 (stereo partly shown)
7.27

###

Biological target: UniProt P03952
Assay: Inhibition of human KLKB1 in dextran sulfate activated human PPP
Type: biochemical
Conditions: human platelet poor plasma (EDTA) activated with 12.5 μg/mL dextransulfate, 24° C.; read-out: IC50
Experimental: Evaluation of the Inhibition of Human KLKB1 in Dextran Sulfate Activated Human PPP Platelet poor plasma (PPP) obtained from human wholeblood, anticoagulated with EDTA, was activated with 12.5 μg/mL dextransulfate for 7 min on ice. The activated PPP was incubated with various concentrations of the test compound in assay buffer. […]
pIC50: −log10 of the molar value.
Observation type: pIC50

Check out these entries, answers already filled in.
Compound	Target or system	pIC50
Cc1nc(N2CC3CC3C2)ncc1Cn1cc(C(=O)N[C@@H]2CCc3c2ccnc3N)cn1 (stereo partly drawn) [Example 11]	UniProt P03952	7.30
Cc1nc(N2CC3C(C2)C3(F)F)ccc1Cn1cc(C(=O)N[C@@H]2CCc3c2ccnc3N)cn1 (stereo partly drawn) [Example 9]	UniProt P03952	7.74
Cc1nc(N2CCC3(CC3)C2)ccc1Cn1cc(C(=O)N[C@@H]2CCc3c2ccnc3N)cn1 [Example 14]	UniProt P03952	7.10
Cc1nc(N2C[C@@H]3[C@H](CO)[C@@H]3C2)ccc1Cn1cc(C(=O)N[C@@H]2CCc3c2ccnc3N)cn1 [Example 12]	UniProt P03952	7.33

1: Cc1nc(N2CC3CC3C2)ccc1Cn1cc(C(=O)N[C@@H]2CCc3c2ccnc3N)nn1 (stereo partly drawn) [Example 5]
2: Cc1nc(N2C[C@@H]3[C@H](C#N)[C@@H]3C2)ccc1Cn1cc(C(=O)N[C@@H]2CCc3c2ccnc3N)cn1 [Example 13]
Looking at recorded values for pIC50, does 1 or 2 come in lower? # respond with the chosen item's label
1
(1: 7.21, 2: 7.49)

###

Biological target: KLKB1 (Homo sapiens (Human))
Assay: Inhibition of KLKB1 using an endpoint assay (fluorogenic substrate H-Pro-Phe-Arg-AMC)
Format: biochemical
Observation type: IC50 (nM)
Reply numerically in nM, unit not repeated.

Requested field: IC50. Item: Cc1nc(N2CC3CC3C2)ccc1Cn1cc(C(=O)N[C@@H]2CCc3c2ccnc3N)cn1 (stereo partly shown)
0.5

Value source: patent US10501440B2
